Exercise: for every item that follows, state its recorded GI50.
# Tested on: IGROV1 ovarian
# assay-notes: NCI tumour cell line growth inhibition, 48 h

Ask: Give reported GI50 value for COc1cc(/C=C/C(=O)c2cccc(-n3cc(-c4ccccc4)[nH]c3=O)c2)cc(OC)c1OC
Result: 2000 nM

Ask: Give reported GI50 value for CC1=C(CCCOC(=O)[C@H](N)CC(C)C)C2=C(C)C3(CC3)[C@@](C)(O)C(=O)C2=C1
Result: 471 nM

Ask: Give reported GI50 value for O=C1C=C(Nc2ccccc2)c2ccccc2C1=O
Result: 2780 nM

Ask: Give reported GI50 value for CCOc1ccc(N(C)c2ccc(/C=C/C3=[N+](C)c4ccccc4C3(C)C)cc2)cc1
Result: 257 nM

Ask: Give reported GI50 value for O=C([CH-]C(=O)c1ccccc1)c1ccccc1.O=C([CH-]C(=O)c1ccccc1)c1ccccc1.O=C([CH-]C(=O)c1ccccc1)c1ccccc1.[Ga+3]
Result: 81900 nM

Ask: Give reported GI50 value for O=C(/C=C\c1ccc(O)c(O)c1)c1ccccc1O
Result: 711 nM

Ask: Give reported GI50 value for CCN(Cc1ccc(OC)cc1)c1ccc(CO)c(Cl)c1
Result: 114 nM

---

# System: CAKI-1 renal
# assay-notes: NCI tumour cell line growth inhibition, 48 h; in the data active = GI50 below about 0.43 µM; inactive = the rest
# output must be one of label 1 = active, label 0 = inactive

Ask: Name the outcome recorded for Nc1c(C(=O)Nc2cccc(Cl)c2)sc2nc3c(cc12)C(=O)CCC3 in the assay.
Result: label 0

Ask: Name the outcome recorded for Cc1cccc2cc(/C=C/C(=O)/C=C/c3ccc(Cl)cc3)c(=O)[nH]c12 in the assay.
Result: label 0

Ask: Name the outcome recorded for O=C(O)c1ccc(N(/C=C/C(=O)C(F)(F)F)Cc2ccc(Cl)cc2)cc1 in the assay.
Result: label 0

Ask: Name the outcome recorded for COc1cccc2c1nc(C(F)F)n2-c1nc(-c2ccc(NS(=O)(=O)CCN(C)C)cc2)nc(N2CCOCC2)n1 in the assay.
Result: label 1

Ask: Name the outcome recorded for COc1cc(/C=C2\CC3C4CC=C5CC(OC(C)=O)CC[C@]5(C)C4CC[C@]3(C)C2=O)ccc1OCCN1CCCC1 (some centres undefined) in the assay.
Result: label 0

Ask: Name the outcome recorded for CCC(=C(c1ccc(OCCN2CCCCC2)cc1)c1ccc(OCCN2CCCCC2)cc1)c1ccc(Cl)cc1 in the assay.
Result: label 0

Ask: Name the outcome recorded for O=C1NC(=O)C(c2c[nH]c3ccccc23)=C1c1c[nH]c2ccccc12 in the assay.
Result: label 0

Ask: Name the outcome recorded for COc1cc2c(c3oc(-c4ccc(O)cc4)c(O)c(=O)c13)CCC(C)(C)O2 in the assay.
Result: label 1

Ask: Name the outcome recorded for O=c1nc2n(-c3cccc(Cl)c3)c3ccc([N+](=O)[O-])cc3cc-2c(=O)[nH]1 in the assay.
Result: label 0

---

Exercise: for every item that follows, state its recorded TGI.
# System: DLD-1 colon
# assay-notes: NCI tumour cell line growth inhibition, 48 h

Ask: Give reported TGI value for C/C(CN1C(=O)c2ccccc2C1=O)=N\NS(=O)(=O)c1ccc2ccccc2c1
Result: > 100 µM

Ask: Give reported TGI value for Cc1c(C(Cc2ccccc2N(C)C(=O)/C=C\C(=O)O)c2c[nH]c3ccccc23)c2ccccc2n1C (centres undefined)
Result: 35.2 µM

Ask: Give reported TGI value for COc1ccc(C(=O)C(C(=O)CCC(=O)Nc2ccc(Cl)c(Cl)c2)c2ccc(OC)cc2)cc1 (centres undefined)
Result: > 100 µM

Ask: Give reported TGI value for COc1nc(NC2OC(COC(C)=O)C(OC(C)=O)C(OC(C)=O)C2OC(C)=O)c(N=CC=Nc2c(NC3OC(COC(C)=O)C(OC(C)=O)C(OC(C)=O)C3OC(C)=O)nc(OC)[nH]c2=O)c(=O)[nH]1 (centres undefined)
Result: > 100 µM

Ask: Give reported TGI value for C/C(=N/NC(=O)c1ccccc1S(N)(=O)=O)C(CN1CCCCC1)C(C1=C(O)C2C=CC=CC2OC1=O)c1ccccc1 (centres undefined)
Result: > 100 µM

Ask: Give reported TGI value for CN(C)CCC(N)(P(=O)([O-])[O-])P(=O)([O-])[O-].N.N.[Pt+2]
Result: > 100 µM

Ask: Give reported TGI value for CC(=O)CCC#Cc1ccccc1C(=O)C(C)=[N+]=[N-]
Result: > 100 µM

Ask: Give reported TGI value for CC(=O)OC(C)(C)C1CC[C@]2(C)/C=C/C(C)C[C@@H](O)/C=C(\C)CC(O)C12 (some centres undefined)
Result: > 100 µM

Ask: Give reported TGI value for O=P1(NCCCl)OCCCN1CCCl (centres undefined)
Result: 431 µM
